- TARGET: mouse Smoothened receptor (Mus musculus, UniProt P56726)
- Sequence (P56726 33-793): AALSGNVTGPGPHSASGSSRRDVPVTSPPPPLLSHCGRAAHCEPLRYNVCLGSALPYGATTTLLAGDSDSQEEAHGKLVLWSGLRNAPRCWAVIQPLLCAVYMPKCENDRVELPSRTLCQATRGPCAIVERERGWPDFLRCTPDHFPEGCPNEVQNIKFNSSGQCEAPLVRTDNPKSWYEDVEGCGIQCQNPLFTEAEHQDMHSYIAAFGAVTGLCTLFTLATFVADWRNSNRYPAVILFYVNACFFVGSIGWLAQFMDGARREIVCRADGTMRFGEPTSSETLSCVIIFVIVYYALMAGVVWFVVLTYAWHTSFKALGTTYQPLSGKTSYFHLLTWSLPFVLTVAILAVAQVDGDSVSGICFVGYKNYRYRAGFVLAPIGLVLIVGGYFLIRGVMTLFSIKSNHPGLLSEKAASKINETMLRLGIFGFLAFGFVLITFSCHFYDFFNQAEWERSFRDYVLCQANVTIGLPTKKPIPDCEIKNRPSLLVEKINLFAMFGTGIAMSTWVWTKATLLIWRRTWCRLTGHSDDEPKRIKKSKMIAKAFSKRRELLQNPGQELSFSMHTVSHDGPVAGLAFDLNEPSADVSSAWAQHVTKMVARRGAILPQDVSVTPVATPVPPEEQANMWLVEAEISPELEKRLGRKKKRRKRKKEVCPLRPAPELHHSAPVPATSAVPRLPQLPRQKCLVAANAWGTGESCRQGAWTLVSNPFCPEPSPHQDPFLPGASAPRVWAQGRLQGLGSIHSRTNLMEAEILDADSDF
READOUT KIND: IC50

Query :: Sample COc1cccc(CN(C(=O)CC(C)(C)C)C2CC(C(=O)N3CCNCC3)N(Cc3ccc4c(c3)OCO4)C2)c1 (stereo not shown) [Cur61414, reference compound] — what was its IC50?
Result :: 30 to 300 nM
